target: MTHFD2 (Homo sapiens (Human))
Sequence (P13995 36-350): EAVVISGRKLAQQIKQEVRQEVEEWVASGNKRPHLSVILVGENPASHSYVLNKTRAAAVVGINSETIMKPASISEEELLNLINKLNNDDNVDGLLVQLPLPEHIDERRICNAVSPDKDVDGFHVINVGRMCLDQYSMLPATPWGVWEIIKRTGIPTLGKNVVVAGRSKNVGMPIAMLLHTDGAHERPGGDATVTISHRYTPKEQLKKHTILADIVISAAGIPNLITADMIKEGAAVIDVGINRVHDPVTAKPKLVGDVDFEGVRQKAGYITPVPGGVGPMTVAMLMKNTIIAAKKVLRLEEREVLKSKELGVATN
Threshold 0.01 µM. IC50 below it: 1.0. IC50 at it or above: 0.0.

Examples with answers:
INSERT INTO assay_data (chemical_smiles, assigned_category) VALUES
  ('Nc1nc(N)c(NC(=O)Nc2ccc(C(=O)N[C@@H](CCC(=O)O)C(=O)O)nc2OC2CC2)c(=O)[nH]1', 1.0),
  ('Nc1nc(N)c(NC(=O)Nc2ccc(C(=O)N[C@@H](CCC(=O)O)C(=O)O)nc2)c(=O)[nH]1', 0.0),
  ('Nc1nc(N)c(CC(=O)Nc2ccc(C(=O)N[C@@H](Cc3ccccc3)C(=O)O)nc2)c(=O)[nH]1', 0.0),
  ('Cc1cc(NC(=O)Cc2c(N)nc(N)[nH]c2=O)cnc1C(=O)N[C@@H](CCC(=O)O)C(=O)O', 0.0),
  ('Nc1nc(N)c(NC(=O)Nc2cnc(C(=O)N[C@@H](CCc3nnn[nH]3)C(=O)O)c(F)c2)c(=O)[nH]1', 1.0),
  ('Nc1nc(N)c(NC(=O)Nc2ccc(C(=O)N[C@@H](CCC(=O)NS(=O)(=O)c3ccccc3)C(=O)O)nc2)c(=O)[nH]1', 0.0),
  ('Nc1nc(N)c(CC(=O)Nc2cnc(C(=O)N[C@@H](CCc3nnn[nH]3)C(=O)O)c(F)c2)c(=O)[nH]1', 0.0),
  ('Nc1nc(N)c(CC(=O)Nc2cnc(C(=O)N[C@@H](CCC(=O)O)C(=O)O)c(C(F)(F)F)c2)c(=O)[nH]1', 0.0);

Then this molecule:
Data request: Determine if Nc1nc(N)c(CC(=O)Nc2ccc(C(=O)N[C@@H](CCC(=O)N[C@@H](CCC(=O)O)C(=O)O)C(=O)O)nc2)c(=O)[nH]1 shows IC50 strictly lower than 0.01 µM.
Data returned: 0.0

The values you see were collected from patent US11504368B2.
